Data origin, for the record: ChEMBL document CHEMBL3228010

The following molecules are shown together with reported C50 values.
# Method summary: Displacement of ethidium from poly[d(A)]-poly[d(T)] DNA (unknown origin) by fluorimetric method
Put down the number, then write its unit next to it.

smiles_text=C/C(=N\NC(=N)N)c1ccc(C(=O)Nc2ccc(Nc3cc[n+](C)c4ccc(N)cc34)cc2)cc1.Cc1ccc(S(=O)(=O)O)cc1.Cc1ccc(S(=O)(=O)[O-])cc1 outcome_measure=C50 experimental_value="0.057 µM"

Please give the documented C50 of C[n+]1ccc(Nc2ccc(NC(=O)c3ccc(Nc4cc[n+](C)c5ccc(N)cc45)cc3N)cc2)cc1.[I-].[I-]
0.039 µM

Give reported C50 value for COc1cc(NC(=O)c2ccc(C(=O)Nc3ccc(C(=O)Nc4ccc[n+](C)c4)c(OC)c3)cc2)ccc1C(=O)Nc1ccc[n+](C)c1.Cc1ccc(S(=O)(=O)[O-])cc1.Cc1ccc(S(=O)(=O)[O-])cc1
0.18 µM

Please look at this molecule and report its C50: CC[n+]1cccc(NC(=O)c2ccc(NC(=O)c3ccc(C(=O)Nc4ccc(C(=O)Nc5ccc[n+](CC)c5)cc4)cc3)cc2)c1.Cc1ccc(S(=O)(=O)[O-])cc1.Cc1ccc(S(=O)(=O)[O-])cc1
0.11 µM

Note C50 for the molecule shown: C[n+]1ccc(Nc2ccc(NC(=O)c3ccc(C(=O)Nc4ccc(Nc5cc[n+](C)cc5)cc4)cc3)cc2)cc1.Cc1ccc(S(=O)(=O)[O-])cc1.Cc1ccc(S(=O)(=O)[O-])cc1
0.043 µM
